biological target: plasma purified human complement protein C3 (human) (UniProt P01024); experiment: cell-based or functional assay
Sequence (P01024 23-667, chain 1 of 2): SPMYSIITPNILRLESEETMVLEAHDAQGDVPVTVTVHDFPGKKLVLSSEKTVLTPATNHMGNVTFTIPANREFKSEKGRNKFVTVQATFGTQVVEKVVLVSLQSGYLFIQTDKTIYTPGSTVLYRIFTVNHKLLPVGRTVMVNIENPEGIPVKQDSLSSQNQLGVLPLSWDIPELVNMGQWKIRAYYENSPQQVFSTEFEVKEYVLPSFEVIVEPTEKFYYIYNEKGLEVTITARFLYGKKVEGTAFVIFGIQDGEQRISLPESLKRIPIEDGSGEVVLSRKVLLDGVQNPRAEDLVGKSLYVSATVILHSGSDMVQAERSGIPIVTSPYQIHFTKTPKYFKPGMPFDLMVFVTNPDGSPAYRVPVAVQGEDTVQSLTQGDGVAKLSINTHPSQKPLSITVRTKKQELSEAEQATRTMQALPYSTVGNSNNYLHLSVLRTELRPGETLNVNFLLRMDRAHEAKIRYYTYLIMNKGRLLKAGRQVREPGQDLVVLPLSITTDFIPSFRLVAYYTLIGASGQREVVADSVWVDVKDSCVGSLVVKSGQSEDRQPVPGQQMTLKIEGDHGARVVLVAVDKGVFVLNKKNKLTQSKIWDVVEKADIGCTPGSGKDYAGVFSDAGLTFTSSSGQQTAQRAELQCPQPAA
Sequence (P01024 672-1663, chain 2 of 2): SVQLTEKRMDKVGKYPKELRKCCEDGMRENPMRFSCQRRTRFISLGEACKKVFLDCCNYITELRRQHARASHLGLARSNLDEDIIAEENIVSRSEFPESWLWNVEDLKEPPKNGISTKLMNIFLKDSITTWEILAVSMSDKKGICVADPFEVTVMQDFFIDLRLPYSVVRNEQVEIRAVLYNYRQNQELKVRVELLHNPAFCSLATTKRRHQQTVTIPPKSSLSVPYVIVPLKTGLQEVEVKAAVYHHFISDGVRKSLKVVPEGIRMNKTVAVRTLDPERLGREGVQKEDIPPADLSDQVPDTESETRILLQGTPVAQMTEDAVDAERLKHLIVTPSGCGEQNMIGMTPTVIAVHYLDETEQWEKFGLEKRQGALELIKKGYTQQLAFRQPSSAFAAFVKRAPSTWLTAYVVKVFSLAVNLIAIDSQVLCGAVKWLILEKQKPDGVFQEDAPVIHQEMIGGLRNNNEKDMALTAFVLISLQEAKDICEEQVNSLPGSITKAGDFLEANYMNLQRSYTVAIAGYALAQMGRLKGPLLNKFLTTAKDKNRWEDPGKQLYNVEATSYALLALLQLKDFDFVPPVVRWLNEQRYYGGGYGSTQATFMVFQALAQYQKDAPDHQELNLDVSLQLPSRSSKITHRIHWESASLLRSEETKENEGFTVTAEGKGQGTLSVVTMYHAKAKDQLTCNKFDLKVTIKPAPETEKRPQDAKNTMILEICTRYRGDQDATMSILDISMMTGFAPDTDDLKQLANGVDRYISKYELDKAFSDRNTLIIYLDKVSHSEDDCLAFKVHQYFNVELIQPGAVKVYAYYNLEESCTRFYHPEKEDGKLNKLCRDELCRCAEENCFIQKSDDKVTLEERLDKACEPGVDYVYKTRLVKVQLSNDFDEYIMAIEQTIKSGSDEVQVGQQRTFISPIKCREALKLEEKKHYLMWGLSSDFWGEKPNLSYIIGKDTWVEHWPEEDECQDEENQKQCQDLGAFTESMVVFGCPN
Measurement type: EC50 of hC3 cleavage (nM)
Your answer is read as nM, so omit the unit and give the number.

Binder	Result
MTSP-1 Q38W/I41A/ins97aV/F97D/T98P/F99L/C122S/G151T/Q175S/Q192D (enzyme) VVGGTDADEGEWPWQVSLHALGWGHACGASLISPNWLVSAAHCYIDDRGFRYSDPTQWTAFLGLHDQSQRSAPGVQERRLKRIISHPFFNDDVPLDYDIALLELEKPAEYSSMVRPISLPDASHVFPAGKAIWVTGWGHTQYGGTTALILQKGEIRVINQTTCENLLPQSITPRMMCVGFLSGGVDSCDGDSGGPLSSVEADGRIFQAGVVSWGDGCAQRNKPGVYTRLPLFRDWIKENTGV	68

# next binder below
Exercise: Please give the measured EC50 of hC3 cleavage for this binder: MTSP-1 H40K/I41M/Y60gF/F97D/F99L/C122S/G151N/Q175L/Q192D (enzyme) VVGGTDADEGEWPWQVSLHALGQGKMCGASLISPNWLVSAAHCYIDDRGFRFSDPTQWTAFLGLHDQSQRSAPGVQERRLKRIISHPFFNDDTLDYDIALLELEKPAEYSSMVRPISLPDASHVFPAGKAIWVTGWGHTQYGGTNALILQKGEIRVINQTTCENLLPQLITPRMMCVGFLSGGVDSCDGDSGGPLSSVEADGRIFQAGVVSWGDGCAQRNKPGVYTRLPLFRDWIKENTGV
Solution: 589
